# Protocol notes: S. cerevisiae growth modulation with rapamycin, primary screen, strain BY4716, OD600, 96 h (AID 1091); also: test concentration not given here
# Condition info: called active from +8 up or from −8 down
Active and inactive are the calls of the source.
Permitted responses: active, inactive

Some solved cases for reference:
>>> assigned_class("CC(C)CNC(=O)[C@@H]1c2ccccc2C(=O)N(Cc2cc(F)cc(C(F)(F)F)c2)[C@H]1c1ccc(CO)cc1")
"inactive"
>>> assigned_class("CCOC(=O)C[C@H]1[C@H](OC(=O)c2ccccc2-c2ccccc2)[C@@H](NC(=O)CC(C)C)c2cc(OCCCO)ccc2N1C(=O)c1ccc2ccccc2n1")
"inactive"
>>> assigned_class("COC(=O)[C@@]1(Cc2ccccc2)[C@H]2c3cc(C(=O)N4CCCC4)n(Cc4cc(F)cc5c4OCOC5)c3C[C@H]2CN1C(=O)c1ccccc1")
"inactive"
>>> assigned_class("CC(=O)N1Cc2ccccc2C[C@]2(N=C(c3ccc(OCCCO)cc3)O[C@@H]2c2ccccc2)C1=O")
"active"
>>> assigned_class("CCOC(=O)C[C@H]1[C@H](OC(=O)c2ccc(C(=O)c3ccccc3)cc2)[C@@H](NC(=O)c2ccc3ccccc3c2)c2cc(OCCCO)ccc2N1C(=O)c1ccccc1")
"inactive"

[Q] // param item: CCCCC(CC)C(O)C1C=CC2C(=O)N(c3ccccc3)C(=O)C2N1Nc1ccc([N+](=O)[O-])cc1 (configuration not stated) ; yields the recorded call
[A] inactive

[Q] Please state the recorded outcome for this compound: CN1C(=O)C2C=CC(C(O)Cc3ccccc3)N(N(c3ccccc3)c3ccccc3)C2C1=O (configuration not stated)
[A] inactive
